These entries and their values trace back to patent US10251889B2.

# TARGET DESC: Jak1 (GST-tagged human Jak1 kinase domain, amino acids 866-1154) (Homo sapiens (Human))
# Sequence (P23458 866-1154): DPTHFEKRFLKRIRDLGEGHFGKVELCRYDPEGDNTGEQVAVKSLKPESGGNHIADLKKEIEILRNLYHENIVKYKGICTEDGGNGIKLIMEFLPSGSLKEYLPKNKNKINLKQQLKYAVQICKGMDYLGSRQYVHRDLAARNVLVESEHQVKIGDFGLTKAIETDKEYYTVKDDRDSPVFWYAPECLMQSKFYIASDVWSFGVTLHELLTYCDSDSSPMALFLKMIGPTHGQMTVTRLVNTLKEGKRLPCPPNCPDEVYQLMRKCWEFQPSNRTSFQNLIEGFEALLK
# PROTOCOL NOTES: Jak1 inhibition assay (Omnia kinase assay)
# Type: biochemical
# EXPERIMENTAL SETUP: read-out: Jak1 (% inhibition at 1000 nM); Table 2; 1000 nM test compound
RESULT TYPE: inhibition at 1 µM (%)

Below are worked cases with known answers.
CNC(=O)c1cnn2ccc(N3CCC[C@@H]3c3cncc(F)c3)nc12 10.9
O=C(NC1(C(F)(F)F)CC1)c1cnn2ccc(N3CCC[C@@H]3c3cncc(F)c3)nc12 8.8
COc1ncc(F)cc1[C@H]1CCCN1c1ccn2ncc(C(=O)N[C@H]3CC[C@H](O)CC3)c2n1 64.2
NC(=O)c1cnn2ccc(N3CCC[C@@H]3c3cc(F)ccc3F)nc12 13.4
O=C(NC1CC1)c1cnn2ccc(N3CCC[C@@H]3c3cncc(F)c3)nc12 8.6
O=C(NCC1CC1)c1cnn2ccc(N3CCC[C@@H]3c3cncc(F)c3)nc12 8.2

A = Cc1ncc(F)cc1[C@H]1CCCN1c1ccn2ncc(C(=O)N[C@H]3CC[C@H](O)CC3)c2n1
B = Cc1ncc(F)cc1[C@H]1CCCN1c1ccn2ncc(C(=O)NC3(C)CC3)c2n1
Looking at recorded values for inhibition at 1 µM, does A or B come in lower? Selection: enter the item's label.
A

###

# TARGET DESC: Tyk2 (human Tyk2 kinase domain, amino acids 886 to 1187) (Homo sapiens (Human), UniProt P29597)
# Sequence (P29597 886-1187): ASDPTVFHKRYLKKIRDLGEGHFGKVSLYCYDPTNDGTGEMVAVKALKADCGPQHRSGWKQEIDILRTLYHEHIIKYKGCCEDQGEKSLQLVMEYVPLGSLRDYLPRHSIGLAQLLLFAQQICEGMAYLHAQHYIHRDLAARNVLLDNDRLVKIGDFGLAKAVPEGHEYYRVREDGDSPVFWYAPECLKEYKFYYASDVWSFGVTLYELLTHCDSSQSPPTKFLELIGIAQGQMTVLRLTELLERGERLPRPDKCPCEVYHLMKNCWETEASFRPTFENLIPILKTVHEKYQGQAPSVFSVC
# PROTOCOL NOTES: Tyk2 inhibition assay (Omnia kinase assay)
# Format: biochemical
# EXPERIMENTAL SETUP: read-out: Tyk2 (% inhibition at 1000 nM); Table 2; 1000 nM test compound
RESULT TYPE: inhibition at 1 µM (%)

P = O=C(NCC1CC1)c1cnn2ccc(N3CCC[C@@H]3c3cncc(F)c3)nc12 [Example 106]
Q = O=C(NC1(C(F)(F)F)CC1)c1cnn2ccc(N3CCC[C@@H]3c3cncc(F)c3)nc12 [Example 98]
Task for the reader: decide whether P or Q has the larger inhibition at 1 µM. // respond with label for picked entry
P

I = CC(C)NC(=O)c1cnn2ccc(N3CCC[C@@H]3c3cncc(F)c3)nc12 [Example 93]
II = Cc1ncc(F)cc1[C@H]1CCCN1c1ccn2ncc(C(=O)N[C@H]3CC[C@H](O)CC3)c2n1 [Example 194]
Just tell me: smaller inhibition at 1 µM value, I or II ? Choose, then provide that item's label.
II

a = CNC(=O)c1cnn2ccc(N3CCC[C@@H]3c3cncc(F)c3)nc12 [Example 114]
b = COc1ncc(F)cc1[C@H]1CCCN1c1ccn2ncc(C(=O)N[C@H]3CC[C@H](O)CC3)c2n1 [Example 140]
# returns the entry with the larger inhibition at 1 µM; inputs a and b Returns: label corresponding to the selected item.
b
(b: 34.8%, a: 11.4%)

P = NC(=O)c1cnn2ccc(N3CCC[C@@H]3c3cc(F)ccc3F)nc12 [Example 30]
Q = C[C@H](NC(=O)c1cnn2ccc(N3CCC[C@@H]3c3cncc(F)c3)nc12)C1CC1 [Example 124]
I need your help: which of the pair P , Q has higher inhibition at 1 µM? Write down the label attached to your selection.
Q

###

# TARGET DESC: Jak2 (human Jak2 kinase domain, amino acids 808-1132) (Homo sapiens (Human))
# PROTOCOL NOTES: Jak2 inhibition assay (Omnia kinase assay)
# Format: biochemical
# EXPERIMENTAL SETUP: read-out: Jak2 Enzyme (% inhibition at 1000 nM), Table 1; 1000 nM test compound
RESULT TYPE: inhibition at 1 µM (%)

Below are worked cases with known answers.
COMPOUND	inhibition at 1 µM [%]
Cc1ccc(CNC(=O)c2cnn3ccc(N4CCC[C@@H]4c4cc(F)ccc4F)nc23)o1 [Example 5]	14.2
O=C(NCC(F)F)c1cnn2ccc(N3CCC[C@@H]3c3cncc(F)c3)nc12 [Example 134]	3.3
COc1ncc(F)cc1[C@H]1CCCN1c1ccn2ncc(C(=O)N3CC(O)C3)c2n1 [Example 139]	-0.4

P = Nc1ncc(F)cc1[C@H]1CCCN1c1ccn2ncc(C(=O)N3CCC3)c2n1 [Example 221]
Q = Cc1ncc(F)cc1[C@H]1CCCN1c1ccn2ncc(C(=O)NC(C)C)c2n1 [Example 184]
Exercise: compare P and Q ; which one has the greater inhibition at 1 µM? Returns: label corresponding to the selected item.
Q
(Q: 11.8%, P: -1.2%)

1 = O=C(NC1CCC1)c1cnn2ccc(N3CCC[C@@H]3c3cc(F)ccc3F)nc12 [Example 14]
2 = C[C@@H](CO)NC(=O)c1cnn2ccc(N3CCC[C@@H]3c3cc(F)ccc3F)nc12 [Example 177]
Which shows the larger inhibition at 1 µM value: 1 or 2 ? Pick one and reply with its label.
1
(1: 66.7%, 2: 26.2%)

###

# TARGET DESC: Jak2 (human Jak2 kinase domain, amino acids 808-1132) (Homo sapiens (Human), UniProt O60674)
# Sequence (O60674 808-1132): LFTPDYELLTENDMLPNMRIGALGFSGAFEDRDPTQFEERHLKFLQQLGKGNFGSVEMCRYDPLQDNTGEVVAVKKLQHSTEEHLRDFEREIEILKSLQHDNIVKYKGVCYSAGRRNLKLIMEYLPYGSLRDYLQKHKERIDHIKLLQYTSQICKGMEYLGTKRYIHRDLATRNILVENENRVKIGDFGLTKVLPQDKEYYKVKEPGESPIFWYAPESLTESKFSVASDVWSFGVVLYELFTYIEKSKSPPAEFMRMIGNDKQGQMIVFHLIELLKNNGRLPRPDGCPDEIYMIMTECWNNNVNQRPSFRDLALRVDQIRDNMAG
# PROTOCOL NOTES: Jak2 inhibition assay (Omnia kinase assay)
# Assay type: biochemical
# EXPERIMENTAL SETUP: read-out: Jak2 Enzyme (% inhibition at 1000 nM), Table 1; 1000 nM test compound
RESULT TYPE: inhibition at 1 µM (%)

CONC(=O)c1cnn2ccc(N3CCC[C@@H]3c3cc(F)ccc3F)nc12 34.1
O=C(NC[C@H](O)CO)c1cnn2ccc(N3CCC[C@@H]3c3cc(F)ccc3C(F)(F)F)nc12 35.2

I = CC1(NC(=O)c2cnn3ccc(N4[C@H](CO)CC[C@@H]4c4cncc(F)c4)nc23)CC1
II = O=C(NCCN1CCC(O)CC1)c1cnn2ccc(N3CCC[C@@H]3c3cc(F)ccc3F)nc12
Looking at I and II , which one comes out lower in inhibition at 1 µM terms? Choose, then provide that item's label.
II

###

# TARGET DESC: Jak2 (human Jak2 kinase domain, amino acids 808-1132) (Homo sapiens (Human), UniProt O60674)
# PROTOCOL NOTES: Jak2 inhibition assay (Omnia kinase assay)
# Type: biochemical
# EXPERIMENTAL SETUP: read-out: Jak2 Enzyme (% inhibition at 1000 nM), Table 1; 1000 nM test compound
RESULT TYPE: inhibition at 1 µM (%)

Examples from the recorded data:
COMPOUND	inhibition at 1 µM (%)
CC(C)(C)NC(=O)c1cnn2ccc(N3C[C@H](O)C[C@@H]3c3cccc(F)c3)nc12 [Example 42]	7.7
CC(C)(O)CNC(=O)c1cnn2ccc(N3CCC[C@@H]3c3cc(F)ccc3F)nc12 [Example 17]	5.6

P = CNC(=O)c1cnn2ccc(N3C[C@H](O)C[C@@H]3c3cccc(F)c3)nc12 [Example 43]
Q = COc1ncc(F)cc1[C@H]1CCCN1c1ccn2ncc(C(=O)N3CC(C)(O)C3)c2n1 [Example 147]
R = C[C@H](NC(=O)c1cnn2ccc(N3CCC[C@@H]3c3cncc(F)c3)nc12)C1CC1 [Example 124]
S = CC(C)[C@@H](CO)NC(=O)c1cnn2ccc(N3CCC[C@@H]3c3cc(F)ccc3F)nc12 [Example 179]
Hey, can you sort those compounds up there by inhibition at 1 µM, smallest first? Form field (ranking): labels in requested order.
S, Q, P, R
(S: -0.2%, Q: 0.9%, P: 4.2%, R: 53.3%)

A = C[C@@H](CO)NC(=O)c1cnn2ccc(N3CCC[C@@H]3c3cncc(F)c3)nc12 [Example 116]
B = COc1ncc(F)cc1[C@H]1CCCN1c1ccn2ncc(C(=O)NCCCCO)c2n1 [Example 151]
Kindly identify the item with the lower inhibition at 1 µM figure among these two: A and B Refer to your chosen entry by its label in the reply.
A
(A: 4.7%, B: 35.6%)

###

# TARGET DESC: Jak2 (human Jak2 kinase domain, amino acids 808-1132) (Homo sapiens (Human))
# PROTOCOL NOTES: Jak2 inhibition assay (Omnia kinase assay)
# Type: biochemical
# EXPERIMENTAL SETUP: read-out: Jak2 Enzyme (% inhibition at 1000 nM), Table 1; 1000 nM test compound
RESULT TYPE: inhibition at 1 µM (%)

Solved cases below.
COMPOUND	OUTPUT UNIT	inhibition at 1 µM
Cc1ncc(F)cc1[C@H]1CCCN1c1ccn2ncc(C(=O)N[C@H]3CN4CCC3CC4)c2n1	%	1.6
COc1ncc(F)cc1[C@H]1CCCN1c1ccn2ncc(C(=O)NC[C@@H](O)CO)c2n1	%	8.9

a = O=C(c1cnn2ccc(N3CCC[C@@H]3c3cncc(F)c3)nc12)N1CCCCC1
b = CC(C)NC(=O)c1cnn2ccc(N3C[C@@H](O)C[C@@H]3c3cccc(F)c3)nc12
c = O=C(NC1(C(F)(F)F)CC1)c1cnn2ccc(N3CCC[C@@H]3c3cncc(F)c3)nc12
d = O=C(NCCN1CCNC1=O)c1cnn2ccc(N3CCC[C@@H]3c3cc(F)ccc3F)nc12
Sort the compounds on inhibition at 1 µM; start with the lowest figure. Write out the labels following the order that was asked for.
a, d, c, b
(a: 3.6%, d: 11.5%, c: 23.7%, b: 61.7%)
